# System under test: AMPK-γ3 CBS1-4 (Homo sapiens)
# Construct: Human γ3 (residues 197-479) was also used as a template for PCR
# Sequence (Q9UGI9 197-479): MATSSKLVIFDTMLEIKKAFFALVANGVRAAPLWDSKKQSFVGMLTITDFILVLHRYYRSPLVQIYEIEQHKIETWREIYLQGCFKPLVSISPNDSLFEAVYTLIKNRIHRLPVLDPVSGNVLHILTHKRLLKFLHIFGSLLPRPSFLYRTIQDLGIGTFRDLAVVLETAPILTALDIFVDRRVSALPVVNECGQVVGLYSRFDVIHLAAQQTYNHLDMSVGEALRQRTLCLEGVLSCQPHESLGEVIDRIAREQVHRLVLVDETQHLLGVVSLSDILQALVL
# Protocol summary: Filter binding assay, GST-CBS domain fusion
# Settings: two site Hill plot model; read-out: B0.5
# Protocol: DNA fragments were produced encoding all four (CBS1-4), or the first two (CBS1-2), or the last two (CBS3-4) of the tandem CBS domains from the human AMPK γ2 subunit. […] Various concentrations of [^14C]-AMP, [γ^32P] […] Radioactivity was determined on the filters by scintillation counting. Non-specific binding (which was trivial) was determined by performing the assay with GST as a control, and was subtracted. […]
Measured property: pKd
Lab note: report pKd as minus log10 of the concentration in molar units, number only.

What does the record list as pKd for Nc1ncnc2c1ncn2[C@@H]1O[C@H](COP(=O)(O)O)[C@@H](O)[C@H]1O [AMP, adenosine monophosphate] ?
3.90

Request the reported pKd associated with Nc1ncnc2c1ncn2[C@@H]1O[C@H](COP(=O)(O)OP(=O)(O)OP(=O)(O)O)[C@@H](O)[C@H]1O
3.00
